Molecular target: SF-rFVIIa (Homo sapiens, UniProt P08709)
Construct: made in house
Sequence (P08709 213-466 limits assumed): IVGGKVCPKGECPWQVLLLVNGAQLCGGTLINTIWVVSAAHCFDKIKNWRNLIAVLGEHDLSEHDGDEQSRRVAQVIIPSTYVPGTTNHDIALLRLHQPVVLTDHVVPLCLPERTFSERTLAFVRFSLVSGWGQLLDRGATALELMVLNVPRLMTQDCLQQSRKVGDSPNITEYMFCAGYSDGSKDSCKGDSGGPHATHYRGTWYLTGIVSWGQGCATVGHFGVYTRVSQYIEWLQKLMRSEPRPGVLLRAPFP
Sequence (P08709 61-212 limits assumed): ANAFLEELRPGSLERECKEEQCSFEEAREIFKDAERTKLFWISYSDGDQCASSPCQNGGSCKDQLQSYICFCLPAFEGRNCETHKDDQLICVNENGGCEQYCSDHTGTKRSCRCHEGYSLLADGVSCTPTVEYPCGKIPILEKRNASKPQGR
Assay: Isothermal titration calorimetry (iTC200) binding to SF-rFVIIa
Details: SF-rFVIIa, pH 8.5, 20° C.

>  <molecularString>
N=C(N)c1ccc2[nH]c(-c3cc(CC(=O)N[C@@H](CC(=O)O)C(=O)O)cc(-c4cc(S(N)(=O)=O)ccc4O)c3O)nc2c1

>  <testedOn>
SF-rFVIIa (Homo sapiens, UniProt P08709)

>  <Kd>
130 nM

$$$$

These measurements were taken from patent US20150273027A1.
